target-of-assay: dopamine (DA) reuptake in synaptosomes (Rattus norvegicus)
Construct: in synaptosomes as described in WO 97/16451 (NeuroSearch A/S)
Sequence (P23977 whole entry): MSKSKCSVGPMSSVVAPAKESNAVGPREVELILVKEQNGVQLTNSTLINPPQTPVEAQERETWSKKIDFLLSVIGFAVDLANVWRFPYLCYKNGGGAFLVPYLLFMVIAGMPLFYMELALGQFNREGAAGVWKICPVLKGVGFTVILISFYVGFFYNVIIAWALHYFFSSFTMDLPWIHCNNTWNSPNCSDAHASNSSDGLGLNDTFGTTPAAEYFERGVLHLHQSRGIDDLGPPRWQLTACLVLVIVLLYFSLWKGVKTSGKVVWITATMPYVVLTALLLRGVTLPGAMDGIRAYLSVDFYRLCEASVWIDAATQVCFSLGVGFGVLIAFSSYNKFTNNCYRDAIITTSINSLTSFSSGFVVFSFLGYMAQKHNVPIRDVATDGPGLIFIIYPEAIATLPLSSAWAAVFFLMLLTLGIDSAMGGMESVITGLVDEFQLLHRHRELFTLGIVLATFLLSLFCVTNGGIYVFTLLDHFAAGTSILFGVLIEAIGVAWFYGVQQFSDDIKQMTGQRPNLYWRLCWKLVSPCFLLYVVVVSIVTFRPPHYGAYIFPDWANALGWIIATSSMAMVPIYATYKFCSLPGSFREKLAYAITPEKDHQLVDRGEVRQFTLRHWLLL
assay-overview: Inhibition of DA reuptake in synaptosomes
measurement-conditions: 3H-DA, read-out: DA-uptake IC50
measured-endpoint: IC50 (nM)
Numbers only, in nM.

structure-as-smiles: O=C(Oc1ccc2ccc(=O)oc2c1)N1CC2CCC(C1)N2
target-of-assay: dopamine (DA) reuptake in synaptosomes (Rattus norvegicus)
IC50 / nM: 92

Parameters: items (list). Returns: IC50 for each item.
1. CN1C2CCCC1CN(C(=O)Oc1ccc3ccc(=O)oc3c1)C2
2. COc1ccc2cc(OC(=O)N3CC4CCCC(C3)N4C)ccc2c1

610
30
